Target: T1, Human CD3eg linker (human)
T1 construct: Single-chain soluble construct; also called recombinant human CD3
T1 chain: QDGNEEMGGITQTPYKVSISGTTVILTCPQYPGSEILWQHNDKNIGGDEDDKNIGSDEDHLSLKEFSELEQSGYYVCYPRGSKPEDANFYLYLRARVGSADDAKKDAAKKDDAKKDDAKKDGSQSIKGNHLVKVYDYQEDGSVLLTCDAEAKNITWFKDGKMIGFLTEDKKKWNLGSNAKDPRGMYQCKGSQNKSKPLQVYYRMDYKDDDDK
Test: SPR Biacore 8K, Ab captured on anti-human Fc, CD3 as analyte, 25 C
Method: Binding affinity of Dual-Fab antibodies (Dual-Ig) to human CD3 were assessed at 25 degrees C. using Biacore 8K instrument (GE Healthcare). Anti-human Fc (GE Healthcare) was immobilized onto all flow cells of a CM4 sensor chip using amine coupling kit (GE Healthcare). Antibodies were captured onto the anti-Fc sensor surfaces, then recombinant human CD3 or CD137 was injected over the flow cell. […]
Readings of koff for the listed binders
Write the value in s⁻¹ as a bare number.

Inquiry: What value of measured koff is listed for H1644L0939 (antibody, V domains shown, Dual-Ig with an Fc; also called DualAE16; dBBDu183H1644/dBBDu072L0939) VH: QVQLVESGGGLVQPGRSLRLSCAASGFVFSNVWFHWVRQAPGKGLEWVAQIKDYYNAYAAYYAPSVKGRFTISRDDSKNSIYLQMNSLKTEDTAVYYCHYVHYASASTLLPAEGVDAWGQGTTVTVSS VL: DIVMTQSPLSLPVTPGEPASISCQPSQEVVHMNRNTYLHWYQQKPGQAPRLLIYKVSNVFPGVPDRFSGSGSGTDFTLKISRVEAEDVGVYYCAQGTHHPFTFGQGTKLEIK ?
Reply text: 0.0808

Inquiry: Which koff value belongs to H1573L0581 (antibody, V domains shown, Dual-Ig with an Fc; also called DualAE07; dBBDu183H1573/dBBDu072L0581) VH: QVQLVESGGGLVQPGRSLRLSCAASGFKFSNVWFHWVRQAPGKGLEWVAQIKDYYNAYAAYYAPSVKGRFTISRDDSKNSIYLQMNSLKTEDTAVYYCHYVHYASASTLLPAFGVDAWGQGTTVTVSS VL: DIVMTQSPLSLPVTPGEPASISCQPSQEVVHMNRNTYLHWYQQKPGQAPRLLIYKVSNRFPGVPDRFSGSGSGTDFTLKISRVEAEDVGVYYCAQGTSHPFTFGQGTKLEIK ?
Reply text: 0.0188

Inquiry: Returns the measured koff for the input binder. Input: H0883 (antibody, V domains shown, Dual-Ig with an Fc; also called DualAE27; dBBDu183H0883/dBBDu072L) VH: QVQLVESGGGLVQPGRSLRLSCAASGFTFSNAWMHWVRQAPGKGLEWVAQIKDKGNAYAAYYAPSVKGRFTISRDDSKNSIYLQMNSLKTEDTAVYYCRYVHYASASTLLPAFGVDAWGQGTTVTVSS VL: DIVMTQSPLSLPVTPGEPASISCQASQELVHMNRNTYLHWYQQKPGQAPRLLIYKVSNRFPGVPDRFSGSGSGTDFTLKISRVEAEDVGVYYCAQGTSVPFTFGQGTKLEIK
Reply text: 0.00999

Cited source: patent US20230147840A1
